Please respond with reported 293T-LentiX WEE1-ePL Degradation 4 hr (Ymin) for every item in the list.
# study.target: WEE1 (Homo sapiens, UniProt P30291+Q96SW2)
# Construct: C-terminal ePL-tagged (DiscoverX, Fremont, CA) full-length WEE1 expression construct; expressed in transfected cells; host or cells: LentiX-HEK293T (Invitrogen), lentiviral transduction; co-expressing GSPT1-GN (G576N, lacking the first 158 amino acids)
# test.protocol: WEE1-ePL degradation assay (LentiX-WEE1-ePL-GSPT1-ND cells, InCELL Hunter luminescence, 4 h)
# Assay type: cell-based
# experimental.conditions: 293T-LentiX WEE1-ePL cells, lower limit of the fit (Ymin=0 luciferase inhibitor, Ymax DMSO control)
Lab note: jot the number down without any unit.

Kindly indicate its recorded 293T-LentiX WEE1-ePL Degradation 4 hr (Ymin). Item: COC[C@@H]1CN(Cc2ccc3nc([C@@H]4CCOC(C)(C)C4)ccc3c2)C[C@H]1Oc1ccc2c(c1)CN([C@H]1CCC(=O)NC1=O)C2=O 25.48

Kindly indicate its recorded 293T-LentiX WEE1-ePL Degradation 4 hr (Ymin). Item: O=C1CC[C@H](N2Cc3cc(O[C@H]4CCN(Cc5ccc6nc(N7CCOCC7)ncc6c5F)C4)ccc3C2=O)C(=O)N1 32.24

Kindly indicate its recorded 293T-LentiX WEE1-ePL Degradation 4 hr (Ymin). Item: C[C@@H]1CN(Cc2cc(F)c3nc([C@H]4CCOC4)ccc3c2)C[C@H]1Oc1ccc2c(c1)CN(C1CCC(=O)NC1=O)C2=O (some centres unmarked) 30.53

Kindly indicate its recorded 293T-LentiX WEE1-ePL Degradation 4 hr (Ymin). Item: CC1(C)C[C@H](c2ncc3cc(CN4CC[C@H](Oc5ccc6c(c5)CN([C@H]5CCC(=O)NC5=O)C6=O)C4)ccc3n2)CCO1 29.31

Kindly indicate its recorded 293T-LentiX WEE1-ePL Degradation 4 hr (Ymin). Item: COC[C@@H]1CC[C@@H](c2ccc3cc(CN4CC[C@H](Oc5ccc6c(c5)CN(C5CCC(=O)NC5=O)C6=O)C4)ccc3n2)C1 (some centres unmarked) 34.2

Kindly indicate its recorded 293T-LentiX WEE1-ePL Degradation 4 hr (Ymin). Item: COC[C@@H]1CN(Cc2ccc3nc(N4CCN(C(C)=O)CC4)ccc3c2)C[C@H]1Oc1ccc2c(c1)CN([C@H]1CCC(=O)NC1=O)C2=O 27.27

Kindly indicate its recorded 293T-LentiX WEE1-ePL Degradation 4 hr (Ymin). Item: O=C1CC[C@H](N2Cc3cc(O[C@H]4CCN(Cc5cc(C(F)(F)F)c6nc(N7CCOCC7)ncc6c5)C4)ccc3C2=O)C(=O)N1 33.06

Kindly indicate its recorded 293T-LentiX WEE1-ePL Degradation 4 hr (Ymin). Item: COC[C@@H]1CN(Cc2ccc3nc(C4CCOCC4)ccc3c2)C[C@H]1Oc1ccc2c(c1)CN(C1CCC(=O)NC1=O)C2=O (some centres unmarked) 29.16

Kindly indicate its recorded 293T-LentiX WEE1-ePL Degradation 4 hr (Ymin). Item: COC[C@H]1CCC[C@@H]1c1ccc2cc(CN3CC[C@H](Oc4ccc5c(c4)CN(C4CCC(=O)NC4=O)C5=O)C3)ccc2n1 (some centres unmarked) 27.68

Kindly indicate its recorded 293T-LentiX WEE1-ePL Degradation 4 hr (Ymin). Item: COC[C@@H]1CCC[C@H](c2ccc3cc(CN4CC[C@H](Oc5ccc6c(c5)CN(C5CCC(=O)NC5=O)C6=O)C4)ccc3n2)C1 (some centres unmarked) 27.12

Kindly indicate its recorded 293T-LentiX WEE1-ePL Degradation 4 hr (Ymin). Item: O=C1CC[C@H](N2Cc3cc(O[C@H]4CCN(Cc5cc(F)c6nc(C7CCOCC7)ncc6c5)C4)ccc3C2=O)C(=O)N1 33.6
